experimental system: T1, human LTBP1-proTGFβ1 complex (human, UniProt Q14766 873-1507)
T1 construct: range 873-1507; biotinylated in Octet and MSD-SET; also called hLTBP1-proTGFβ1; hLTBP1
T1 sequence (Q14766 873-1507 limits assumed, chain 1 of 2): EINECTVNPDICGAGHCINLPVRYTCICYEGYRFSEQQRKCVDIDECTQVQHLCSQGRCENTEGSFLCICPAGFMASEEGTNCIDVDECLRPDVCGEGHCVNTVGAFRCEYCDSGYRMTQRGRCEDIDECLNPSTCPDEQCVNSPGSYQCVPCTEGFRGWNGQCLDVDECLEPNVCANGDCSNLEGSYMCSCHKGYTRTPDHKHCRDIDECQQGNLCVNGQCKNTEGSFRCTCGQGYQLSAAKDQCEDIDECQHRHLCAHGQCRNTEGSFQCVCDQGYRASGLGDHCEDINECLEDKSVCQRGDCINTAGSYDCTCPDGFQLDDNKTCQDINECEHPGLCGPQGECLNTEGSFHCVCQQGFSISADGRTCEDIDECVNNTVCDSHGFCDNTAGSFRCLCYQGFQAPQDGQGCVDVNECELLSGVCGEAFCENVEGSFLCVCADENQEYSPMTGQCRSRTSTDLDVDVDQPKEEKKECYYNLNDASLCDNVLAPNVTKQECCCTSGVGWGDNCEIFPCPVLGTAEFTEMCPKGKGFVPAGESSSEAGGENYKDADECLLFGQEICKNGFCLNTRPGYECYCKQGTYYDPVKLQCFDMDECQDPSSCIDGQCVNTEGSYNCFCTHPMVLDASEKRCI
T1 sequence (chain, as listed by the source limits assumed, chain 2 of 2): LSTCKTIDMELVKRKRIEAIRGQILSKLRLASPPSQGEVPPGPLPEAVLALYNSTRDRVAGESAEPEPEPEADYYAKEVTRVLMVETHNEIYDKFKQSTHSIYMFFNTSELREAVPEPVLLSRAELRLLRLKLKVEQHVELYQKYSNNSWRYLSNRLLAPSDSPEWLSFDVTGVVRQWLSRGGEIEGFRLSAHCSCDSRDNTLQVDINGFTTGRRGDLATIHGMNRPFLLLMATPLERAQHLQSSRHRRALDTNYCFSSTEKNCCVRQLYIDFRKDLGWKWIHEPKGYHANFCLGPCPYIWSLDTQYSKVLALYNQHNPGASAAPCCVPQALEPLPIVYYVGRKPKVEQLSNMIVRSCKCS
measurement notes: BLI (Octet)
Form field: Kd (one value per entry).
Note: unit nM is implicit; provide only the numeric part.

Consider the reported Kd for these binders:
[[record]]
binder = "Ab19 (antibody, IgG4, V domains shown) VH: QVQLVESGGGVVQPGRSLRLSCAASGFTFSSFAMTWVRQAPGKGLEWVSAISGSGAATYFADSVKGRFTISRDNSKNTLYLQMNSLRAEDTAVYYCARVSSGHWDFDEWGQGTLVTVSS VL: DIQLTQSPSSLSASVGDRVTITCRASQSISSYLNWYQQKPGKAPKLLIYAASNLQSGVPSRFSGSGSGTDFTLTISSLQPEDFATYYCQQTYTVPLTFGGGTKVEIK"
readout_name = "Kd"
quantitative_readout = 0.189

[[record]]
binder = "Ab21 (antibody, V domains shown) VH: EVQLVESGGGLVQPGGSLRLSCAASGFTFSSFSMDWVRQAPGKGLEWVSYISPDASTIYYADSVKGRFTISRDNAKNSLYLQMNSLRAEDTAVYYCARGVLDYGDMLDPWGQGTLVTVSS VL: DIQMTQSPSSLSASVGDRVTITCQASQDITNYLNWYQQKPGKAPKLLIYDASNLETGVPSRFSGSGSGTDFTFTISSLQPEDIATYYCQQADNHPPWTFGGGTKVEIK"
readout_name = "Kd"
quantitative_readout = 0.225


GET /value?item= Ab17 (antibody, V domains shown) VH: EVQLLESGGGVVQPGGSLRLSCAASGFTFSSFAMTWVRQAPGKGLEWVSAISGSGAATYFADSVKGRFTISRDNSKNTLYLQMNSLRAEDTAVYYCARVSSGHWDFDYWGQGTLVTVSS VL: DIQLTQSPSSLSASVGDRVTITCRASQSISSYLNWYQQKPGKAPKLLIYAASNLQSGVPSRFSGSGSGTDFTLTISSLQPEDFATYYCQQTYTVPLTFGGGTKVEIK &field=Kd returns 0.174
